assay method text: Cmax in mouse at 30 mg/kg, administered as single dose via oral gavage by HPLC-ESI-MS/MS analysis
Type: ADME, organism-based
Design: dose 30 mg/kg, route oral
cond: in vivo
Would you mind telling me the reported Cmax of each entry?
State just the number; it will be interpreted in nM.

Reported Cmax, compound `C[C@H](CCC(=O)N[C@H](CC(=O)O)Cc1c[nH]c2ccccc12)[C@H]1CC[C@H]2[C@@H]3CC[C@@H]4C[C@H](O)CC[C@]4(C)[C@H]3CC[C@]12C` : ____
10

// repeat for `C[C@H](CCC(=O)N[C@H](CC(=O)O)Cc1c[nH]c2ccccc12)[C@H]1CC[C@H]2[C@@H]3CC[C@@H]4C[C@H](OC(N)=O)CC[C@]4(C)[C@H]3CC[C@]12C` and report
870

// repeat for `C[C@H](CCC(=O)N[C@H](CC(=O)O)Cc1c[nH]c2ccccc12)[C@H]1CC[C@H]2[C@@H]3CC[C@@H]4C/C(=N/O)CC[C@]4(C)[C@H]3CC[C@]12C` and report
400
